Data provenance is patent US20250002455A1.

# subject_of_test: S. aureus DNA gyrase (Staphylococcus aureus)
# Construct: purchased Inspiralis
# Sequence (P20831 whole entry): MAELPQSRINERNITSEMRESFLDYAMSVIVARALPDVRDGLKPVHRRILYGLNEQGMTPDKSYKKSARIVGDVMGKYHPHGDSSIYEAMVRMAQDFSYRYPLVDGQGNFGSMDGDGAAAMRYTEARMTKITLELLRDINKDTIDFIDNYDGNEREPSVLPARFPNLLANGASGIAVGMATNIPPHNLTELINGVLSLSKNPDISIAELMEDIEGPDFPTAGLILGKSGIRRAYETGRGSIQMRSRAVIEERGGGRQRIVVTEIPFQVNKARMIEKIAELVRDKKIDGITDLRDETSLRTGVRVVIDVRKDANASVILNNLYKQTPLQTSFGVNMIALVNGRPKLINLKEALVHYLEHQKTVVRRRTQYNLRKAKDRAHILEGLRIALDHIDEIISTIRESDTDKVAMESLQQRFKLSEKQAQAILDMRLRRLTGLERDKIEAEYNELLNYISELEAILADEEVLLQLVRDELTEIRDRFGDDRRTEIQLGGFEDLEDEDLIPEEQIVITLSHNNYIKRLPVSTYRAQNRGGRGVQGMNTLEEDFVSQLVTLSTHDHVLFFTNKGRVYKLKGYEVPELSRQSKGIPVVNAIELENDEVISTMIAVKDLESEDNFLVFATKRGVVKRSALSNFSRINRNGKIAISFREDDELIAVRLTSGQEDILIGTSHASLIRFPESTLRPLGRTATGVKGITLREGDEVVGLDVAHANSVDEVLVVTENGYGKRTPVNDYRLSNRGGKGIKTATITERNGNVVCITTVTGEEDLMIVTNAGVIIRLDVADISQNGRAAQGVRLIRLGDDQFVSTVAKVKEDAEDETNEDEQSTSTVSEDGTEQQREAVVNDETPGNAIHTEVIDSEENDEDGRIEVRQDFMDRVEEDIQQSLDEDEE
# Sequence (P0A0K8 whole entry): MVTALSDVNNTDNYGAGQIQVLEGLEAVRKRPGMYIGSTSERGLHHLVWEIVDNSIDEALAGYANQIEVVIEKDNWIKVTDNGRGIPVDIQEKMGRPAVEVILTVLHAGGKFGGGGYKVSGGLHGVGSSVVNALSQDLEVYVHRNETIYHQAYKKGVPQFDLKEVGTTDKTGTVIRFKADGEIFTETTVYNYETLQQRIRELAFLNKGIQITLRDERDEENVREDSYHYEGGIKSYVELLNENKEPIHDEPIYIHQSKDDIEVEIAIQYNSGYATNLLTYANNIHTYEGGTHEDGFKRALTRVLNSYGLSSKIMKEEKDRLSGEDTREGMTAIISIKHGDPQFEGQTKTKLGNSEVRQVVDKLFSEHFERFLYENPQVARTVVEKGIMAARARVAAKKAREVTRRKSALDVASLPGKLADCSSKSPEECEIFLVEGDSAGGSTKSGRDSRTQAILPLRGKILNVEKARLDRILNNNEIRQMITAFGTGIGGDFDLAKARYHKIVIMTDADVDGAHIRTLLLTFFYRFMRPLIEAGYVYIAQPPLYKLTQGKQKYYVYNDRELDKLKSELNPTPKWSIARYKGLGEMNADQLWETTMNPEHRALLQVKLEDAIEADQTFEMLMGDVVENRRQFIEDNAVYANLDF
# procedure_summary: biochemical
# run_conditions: S. aureus DNA gyrase; read-out: IC50
property_measured: IC50 (nM)
Give your result in nM as a bare value.

Field: example entries. Status: answers known.
{"molecule": "Cc1[nH]c(C(=O)Nc2ccc(-c3nn[nH]n3)cc2N2CCCC(CN)C2)c(Cl)c1Cl.Cl (stereo not drawn) [Example 9]", "value_reported": 35}
{"molecule": "Cc1[nH]c(C(=O)Nc2ccc(-n3nn[nH]c3=O)cc2N2CCC(N)CC2)c(Cl)c1Cl.Cl [Example 23]", "value_reported": 216}
{"molecule": "Cc1[nH]c(C(=O)Nc2ccc(-c3noc(=O)[nH]3)cc2N2CCCC(N)C2)c(Cl)c1Cl.Cl (stereo not drawn) [Example 2]", "value_reported": 55.8}
{"molecule": "Cc1[nH]c(C(=O)Nc2ccc(C(=O)NCC(=O)O)cc2N2CCNCC2)c(Cl)c1Cl.Cl [Example 36]", "value_reported": 621}
{"molecule": "Cc1[nH]c(C(=O)Nc2ccc(-n3nn[nH]c3=O)cc2N2CC[C@H](N)C2)c(Cl)c1Cl.Cl [Example 22]", "value_reported": 121}

What measured IC50 is associated with Cc1[nH]c(C(=O)Nc2ccc(-c3noc(=O)[nH]3)cc2N2CCCC(CN)C2)c(Cl)c1Cl.Cl (stereo not drawn) [Example 3] on S. aureus DNA gyrase (Staphylococcus aureus)? 24.1
